Value source: PubChem BioAssay (NCI)

Listed here: items and their measured growth inhibition.
# Test name: NCI Yeast Anticancer Drug Screen. Data for the mlh1 rad18 strain (AID 175)
# Experimental parameters: S. cerevisiae mlh1 rad18 strain growth inhibition; at 50.0 µM; hits give high values
Compounds without any hit were thinned out: in the full panel of roughly 79,000, 15% have a hit.

{"columns": ["Compound", "growth inhibition, %"],
 "data": [
  ["Cc1cccc(C=NC23CC4CC(CC(C4)C2)C3)c1", -43.3],
  ["Cc1ccc(N(CN2C(=O)CCC2=O)CS(=O)(=O)c2ccc(Cl)cc2)cc1", -19.6],
  ["COCCCn1cnn2c(=O)c3ccccc3nc2c1=O", 6.25],
  ["ClC[C@H]1C[C@@H]2C[C@@H]1[C@H]1O[C@@H]21", 10.8],
  ["O=C(CCN1CCOCC1)Nc1ccc(F)cc1F", -6.1],
  ["NNC(=O)c1ccc(Cl)cc1Nc1ccccc1", 89],
  ["COc1ccc(Br)cc1/C=N/N=C/c1cc(Br)ccc1OC", 23.4],
  ["CC1CCCC(=O)CC1 (stereo not given)", 6.5],
  ["CCOC(=O)C(CC)N1C(=O)c2ccccc2S1(=O)=O (stereo not given)", -12.6],
  ["N#C/C(N)=C(\\C#N)N=CNc1ccc(N)cc1", -10.9],
  ["CCCCNCCCNCCCC", 2.6],
  ["COc1ccccc1OC(C)=O", 17.9],
  ["CC1(C)[C@H]2Cc3c(ccc4c3C(=O)OC4=O)[C@@H]1C2", 2.45],
  ["COc1ccc(OC(C)C(=O)O)cc1 (stereo not given)", 6.25],
  ["C=CCOC(=O)C(O)C=C (stereo not given)", 11.6],
  ["CCN(CC)CCOC(=O)C(c1ccccc1)C1C=CCCC1 (stereo not given)", 30.4],
  ["CCOc1ccc(NC(=O)CCCCCCCCC(=O)Nc2ccc(OCC)cc2)cc1", 19.8],
  ["CCCCCCCCCCCOC(=O)CCl", -7.4],
  ["O=C(O)C1C2CCC(O2)C1C(=O)NCc1cccnc1 (stereo not given)", 2.85],
  ["Cc1ccc([N+](=O)[O-])cc1NC(=O)NCCO", -1.75],
  ["C[N+](C)(C)/N=C(/c1ccccc1)C1CCCCC1", 7.7],
  ["Cc1nc([N+](=O)[O-])cn1CC(=N)N", -38.7],
  ["CCCCCCCC/C=C\\CCCCCCCC(=O)OC", 49],
  ["CCC1(O)CC2CN(CCc3c([nH]c4ccccc34)C(C(=O)OC)(c3cc4c(cc3OC)N(C)C3C(O)(C(N)=O)C(O)C5(CC)C=CCN6CCC43C65)C2)C1 (stereo not given) (tested in a mixture with another compound)", 20.7],
  ["CC(=O)c1ccncc1", 20.6],
  ["S=c1[nH]ncc(SCc2ccccc2)c1SCc1ccccc1", 7.55],
  ["CCOC(=O)/C(Cc1cnc2ccccc2n1)=N\\O", -24.9],
  ["O=C1C=C(Nc2ccc(Cl)cc2C(=O)c2ccccc2)c2ccccc2C1=O", -2.9],
  ["CCCCc1c(OC)cc(O)c2c1C(=O)c1[nH]c(C(=O)O)c(O)c(=O)c1C2=O", -5.75],
  ["CC(C)(C)C([O-])=C1C(=O)c2ccccc2C1=O.CC(C)(C)C([O-])=C1C(=O)c2ccccc2C1=O.CC[O-].CC[O-].[Ti+4]", 46.2],
  ["CCOc1c(C)cc(C(C)c2cc3c(cc2OC)OCO3)cc1C (stereo not given)", 25.1],
  ["CCc1ccccc1NC(C)=O", -12.7],
  ["O=C(Nc1cccnc1)c1ccc([N+](=O)[O-])s1", 16.1],
  ["O=C1C(Cl)N(c2ccc(Cl)cc2Cl)C1c1c[nH]c2ccccc12 (stereo not given)", -20.4],
  ["Cc1ccc2nc(Nc3ccc(Cl)cc3)cc(C(O)C3CCCCN3)c2c1 (stereo not given)", 99.5]
]}
